assay: Tapped density according to USP 24, method II; type: physicochemical; conditions: compressibility index from bulk and tapped density; trihydrate
value.kind: db*(1/db − 1/dt)*100% (%)

As a guide, the following entries are already answered.
{"compound": "CC1(C)S[C@@H]2[C@H](NC(=O)[C@H](N)c3ccc(O)cc3)C(=O)N2[C@H]1C(=O)O.O.O.O [Ref. B, amoxicillin trihydrate, reference compound]", "value.unit": "%", "recorded.number": 45}
{"compound": "CC1(C)S[C@@H]2[C@H](NC(=O)[C@H](N)c3ccc(O)cc3)C(=O)N2[C@H]1C(=O)O.O.O.O [Ex. IV, amoxicillin trihydrate]", "value.unit": "%", "recorded.number": 33}
{"compound": "CC1(C)S[C@@H]2[C@H](NC(=O)[C@H](N)c3ccc(O)cc3)C(=O)N2[C@H]1C(=O)O.O.O.O [Ex. II, amoxicillin trihydrate]", "value.unit": "%", "recorded.number": 28}

I. CC1(C)S[C@@H]2[C@H](NC(=O)[C@H](N)c3ccc(O)cc3)C(=O)N2[C@H]1C(=O)O.O.O.O [Ex. VI, amoxicillin trihydrate]
II. CC1(C)S[C@@H]2[C@H](NC(=O)[C@H](N)c3ccc(O)cc3)C(=O)N2[C@H]1C(=O)O.O.O.O [Ex. I, amoxicillin trihydrate]
Exam item: # min-compare on db*(1/db − 1/dt)*100% between I and II Identify your selection by its label.
Marked response: I

a. CC1(C)S[C@@H]2[C@H](NC(=O)[C@H](N)c3ccc(O)cc3)C(=O)N2[C@H]1C(=O)O.O.O.O [Comp. A, amoxicillin trihydrate, reference compound]
b. CC1(C)S[C@@H]2[C@H](NC(=O)[C@H](N)c3ccc(O)cc3)C(=O)N2[C@H]1C(=O)O.O.O.O [Ex. III, amoxicillin trihydrate]
Exam item: Which numeric db*(1/db − 1/dt)*100% is bigger, that of a or that of b ? Identify your selection by its label.
Marked response: a
(a: 53%, b: 31%)

Sourced from patent US7534781B2
